- Experimental Target: JAK2 (Homo sapiens)
- Sequence (O60674 whole entry, species assumed): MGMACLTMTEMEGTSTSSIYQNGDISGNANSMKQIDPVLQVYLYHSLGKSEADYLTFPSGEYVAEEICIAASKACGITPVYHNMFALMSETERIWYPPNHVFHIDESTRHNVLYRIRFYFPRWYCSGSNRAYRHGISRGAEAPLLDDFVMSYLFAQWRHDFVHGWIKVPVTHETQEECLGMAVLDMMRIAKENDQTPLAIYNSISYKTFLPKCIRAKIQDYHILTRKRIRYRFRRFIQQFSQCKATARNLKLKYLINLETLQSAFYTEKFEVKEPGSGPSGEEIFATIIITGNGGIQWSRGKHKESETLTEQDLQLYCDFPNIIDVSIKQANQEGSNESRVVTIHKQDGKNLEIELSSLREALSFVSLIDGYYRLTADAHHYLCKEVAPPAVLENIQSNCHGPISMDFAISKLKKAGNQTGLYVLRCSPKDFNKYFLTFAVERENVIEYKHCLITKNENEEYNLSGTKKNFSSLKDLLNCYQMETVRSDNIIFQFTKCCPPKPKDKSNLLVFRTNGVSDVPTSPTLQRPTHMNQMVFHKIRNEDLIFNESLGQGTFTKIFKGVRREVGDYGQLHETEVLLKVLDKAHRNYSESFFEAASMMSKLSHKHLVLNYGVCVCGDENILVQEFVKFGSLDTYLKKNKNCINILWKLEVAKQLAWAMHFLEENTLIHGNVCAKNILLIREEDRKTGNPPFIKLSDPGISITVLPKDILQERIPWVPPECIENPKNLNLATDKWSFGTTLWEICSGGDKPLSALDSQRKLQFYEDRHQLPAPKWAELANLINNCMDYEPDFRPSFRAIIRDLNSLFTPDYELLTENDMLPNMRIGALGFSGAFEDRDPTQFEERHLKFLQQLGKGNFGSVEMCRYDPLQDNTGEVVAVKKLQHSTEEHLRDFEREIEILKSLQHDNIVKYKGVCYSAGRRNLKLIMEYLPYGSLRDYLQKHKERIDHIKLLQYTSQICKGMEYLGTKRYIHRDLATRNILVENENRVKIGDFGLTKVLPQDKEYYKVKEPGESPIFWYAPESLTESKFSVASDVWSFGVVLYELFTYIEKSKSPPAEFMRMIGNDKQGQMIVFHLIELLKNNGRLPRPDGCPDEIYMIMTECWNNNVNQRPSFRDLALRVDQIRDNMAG
Reported Endpoint: IC50

Here is how some compounds turned out for IC50.
>>> observed_value("CN(C)S(=O)(=O)c1ccccc1Cn1ncc2cnc(Nc3ccc4c(c3)CCC(=O)N4)cc21")
"< 20 nM"
>>> observed_value("CN(C)c1ccc(Nc2ncc3ccn(Cc4cccnc4N(C)S(C)(=O)=O)c3n2)cc1")
"< 20 nM"
>>> observed_value("O=S(=O)(c1cccc2cccnc12)n1ccc2cnc(Nc3ccc(CN4CCNCC4)cc3)nc21")
"< 20 nM"
>>> observed_value("Cc1nn(Cc2ccccc2OC(F)F)c2cc(Nc3ccc4c(c3)CCC(=O)N4)ncc12")
"> 1000 nM"

Challenge: Return reported IC50 for target or system JAK2 (Homo sapiens), item CC(=O)Nc1cccc(Nc2cc3c(ccn3S(=O)(=O)c3cccc(OC(F)(F)F)c3)cn2)c1 .
Response given: > 1000 nM

Challenge: Return reported IC50 for target or system JAK2 (Homo sapiens), item COc1ccccc1S(=O)(=O)n1ccc2cnc(Nc3ccc4c(c3)CCC(=O)N4)nc21 .
Response given: < 20 nM

###

- Experimental Target: Recombinant Src enzyme (Homo sapiens, UniProt P12931)
- Sequence (P12931 whole entry): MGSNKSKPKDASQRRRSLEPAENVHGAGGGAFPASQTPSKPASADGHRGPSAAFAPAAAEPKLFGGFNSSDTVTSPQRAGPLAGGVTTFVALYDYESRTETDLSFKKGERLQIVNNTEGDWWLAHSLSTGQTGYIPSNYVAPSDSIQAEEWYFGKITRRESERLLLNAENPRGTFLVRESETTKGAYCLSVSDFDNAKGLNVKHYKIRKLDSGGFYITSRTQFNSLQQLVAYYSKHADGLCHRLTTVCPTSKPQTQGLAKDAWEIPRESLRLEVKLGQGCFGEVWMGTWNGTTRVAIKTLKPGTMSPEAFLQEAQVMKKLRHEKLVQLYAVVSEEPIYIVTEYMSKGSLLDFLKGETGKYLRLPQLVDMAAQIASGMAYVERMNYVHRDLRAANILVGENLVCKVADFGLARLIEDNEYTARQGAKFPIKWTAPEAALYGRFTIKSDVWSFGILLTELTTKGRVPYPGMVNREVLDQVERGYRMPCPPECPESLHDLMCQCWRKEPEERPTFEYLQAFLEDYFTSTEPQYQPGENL
- Assay Details: Src HTRF assay
pIC50: −log10 of the molar value.
Reported Endpoint: pIC50

Here is how some molecules turned out for pIC50.
>>> observed_value("COc1cc(C(=O)N2CCOCC2)c(F)cc1Nc1ncc2ccn(Cc3ccccc3N(C)S(C)(=O)=O)c2n1")
"< 6.00"
>>> observed_value("COc1cc(N2CCOCC2)ccc1Nc1cc2c(ccn2S(=O)(=O)c2cccc3cccnc23)cn1")
"< 6.00"
>>> observed_value("COc1cc(Nc2ncc3ccn(Cc4ccccc4N(C)S(C)(=O)=O)c3n2)ccc1N1CCN(C)CC1")
"> 7.70"
>>> observed_value("COc1cc(N2CCC(O)CC2)ccc1Nc1cc2c(cn1)cnn2S(=O)(=O)c1cccc2cccnc12")
"< 6.00"

Challenge: Output pIC50 of CC(=O)Nc1cccc(Nc2ncc3ccn(S(=O)(=O)c4ccc(C)cc4)c3n2)c1
Response given: < 6.00

Challenge: Output pIC50 of N#Cc1ccccc1S(=O)(=O)n1ncc2cnc(Nc3ccc(N4CCN(CCO)CC4)cc3)cc21
Response given: < 6.00

Challenge: Output pIC50 of COc1cc(C(=O)N2CCOCC2)ccc1Nc1ncc2ccn(Cc3ccccc3N(C)S(C)(=O)=O)c2n1
Response given: < 6.00

Challenge: Output pIC50 of CN(c1ncccc1Cn1ccc2cnc(Nc3c(F)cccc3F)nc21)S(C)(=O)=O
Response given: < 6.00

Challenge: Output pIC50 of Cc1ccnc2c(S(=O)(=O)n3ccc4cnc(Nc5ccc(N6CCC(O)CC6)cc5)nc43)cccc12
Response given: < 6.00

###

- Experimental Target: Recombinant Src enzyme (Homo sapiens, UniProt P12931)
- Assay Details: Src HTRF assay
Reported Endpoint: IC50

Here is how some molecules turned out for IC50.
>>> observed_value("COc1cc(N2CCN(CCO)CC2)ccc1Nc1cc2c(ccn2S(=O)(=O)c2cccc3cccnc23)cn1 [Example 386]")
"> 1000 nM"
>>> observed_value("Cc1cc(Nc2ncc3ccn(S(=O)(=O)c4ccccc4C#N)c3n2)ccc1N1CCNCC1 [Example 212]")
"< 20 nM"
>>> observed_value("C[C@@H]1CN(c2ccc(Nc3ncc4ccn(Cc5ccccc5NS(C)(=O)=O)c4n3)cc2)CCN1 [Example 547]")
"< 20 nM"
>>> observed_value("Cc1nn(S(=O)(=O)c2ccccc2OC(F)(F)F)c2cc(Nc3ccc4c(c3)CCC(=O)N4)ncc12 [Example 90]")
"> 1000 nM"
>>> observed_value("COc1ccc(Cn2ccc3cnc(Nc4ccc(N5CCNCC5)cc4)nc32)c(N(C)S(C)(=O)=O)c1 [Example 772]")
"> 1000 nM"
>>> observed_value("CC1(C)CN(c2ccccn2)c2nc(Nc3ccc4[nH]cc(C5=CCNCC5)c4c3)ncc21 [Example 713]")
"> 1000 nM"

Turning now to a further molecule:
Challenge: Output IC50 of O=S(=O)(c1cccc2cccnc12)n1ccc2cnc(Nc3ccc(N4CCNCC4)cc3OC3CCC3)cc21 [Example 362]
Response given: > 1000 nM

###

- Experimental Target: JAK2 (Homo sapiens)
pIC50: −log10 of the molar value.
Reported Endpoint: pIC50

>>> observed_value("C[C@H]1CNCCN1c1ccc(Nc2ncc3ccn(Cc4ccccc4N(C)S(C)(=O)=O)c3n2)cc1")
"> 7.70"

Challenge: Return reported pIC50 for target or system JAK2 (Homo sapiens), item CC(=O)Nc1ccc(Nc2cc3c(cn2)cnn3Cc2cccnc2N(C)S(C)(=O)=O)cc1 .
Response given: < 6.00

Challenge: Return reported pIC50 for target or system JAK2 (Homo sapiens), item COc1cc(N2CCN(CCO)CC2)ccc1Nc1ncc2ccn(S(=O)(=O)c3cccc4cccnc34)c2n1 .
Response given: < 6.00

Challenge: Return reported pIC50 for target or system JAK2 (Homo sapiens), item CN(C)C1CCN(c2ccc(Nc3ncc4ccn(Cc5ccccc5N(C)S(C)(=O)=O)c4n3)cc2)CC1 .
Response given: > 7.70

###

- Experimental Target: recombinant human FAK1 (Homo sapiens, UniProt Q05397)
- Construct: fused on or other part: N-terminal 6xHis tag
- Sequence (Q05397 422-680 limits assumed): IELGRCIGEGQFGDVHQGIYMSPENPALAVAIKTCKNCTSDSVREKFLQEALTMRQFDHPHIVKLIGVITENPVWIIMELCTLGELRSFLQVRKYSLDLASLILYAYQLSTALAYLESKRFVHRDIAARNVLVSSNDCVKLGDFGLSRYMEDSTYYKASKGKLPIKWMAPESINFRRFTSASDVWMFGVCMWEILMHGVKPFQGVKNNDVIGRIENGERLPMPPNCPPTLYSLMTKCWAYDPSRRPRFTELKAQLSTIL
- Assay Details: FAK1 HTRF assay
// reported IC50 per item

>>> observed_value("CN(c1ncccc1CN1CC(C)(C)c2cnc(Nc3ccc(N4CCNCC4)cc3)nc21)S(C)(=O)=O [Example 437]")
"> 1000 nM"
>>> observed_value("CN(c1ncccc1Cn1ccc2cnc(Nc3ccc4[nH]cc(C5=CCNCC5)c4c3)nc21)S(C)(=O)=O [Example 152]")
"< 20 nM"
>>> observed_value("COc1ccccc1S(=O)(=O)n1ccc2cnc(Nc3cncnc3)nc21 [Example 146]")
"> 1000 nM"

Challenge: Output IC50 of CN(c1ccc(C(F)(F)F)cc1Cn1ccc2cnc(Nc3ccc(N4CCNCC4)cc3)nc21)S(C)(=O)=O [Example 892]
Response given: < 20 nM

###

- Experimental Target: recombinant human FAK1 (Homo sapiens, UniProt Q05397)
- Construct: fused on or other part: N-terminal 6xHis tag
- Assay Details: FAK1 HTRF assay
pIC50: −log10 of the molar value.
// reported pIC50 per item

>>> observed_value("COc1cc(Nc2ncc3ccn(Cc4ccccc4N(C)S(C)(=O)=O)c3n2)ccc1N1CCN(C)CC1 [Example 429]")
"> 7.70"
>>> observed_value("CN(c1ccccc1Cn1ccc2cnc(Nc3ccc(OCCN4CCNCC4)cc3)nc21)S(C)(=O)=O [Example 572]")
"> 7.70"
>>> observed_value("COc1ccc(N(C)S(C)(=O)=O)c(Cn2ccc3cnc(Nc4ccc5c(c4)CC(=O)N5)nc32)c1 [Example 691]")
"> 7.70"
>>> observed_value("O=S(=O)(c1cccc2cccnc12)n1ccc2cnc(Nc3ccc4ncsc4c3)nc21 [Example 381]")
"> 7.70"
>>> observed_value("CN(c1ccccc1Cn1ccc2cnc(Nc3ccc(N4CCNC(C)(C)C4)cc3)nc21)S(C)(=O)=O [Example 606]")
"> 7.70"

Challenge: Output pIC50 of C[C@H]1CN(c2ccc(Nc3ncc4ccn(Cc5cc(C(F)(F)F)ccc5N(C)S(C)(=O)=O)c4n3)cc2)CCN1 [Example 810]
Response given: > 7.70

Challenge: Output pIC50 of C[C@@H]1CN(c2ccc(Nc3ncc4ccn(S(=O)(=O)c5cccc6cccnc56)c4n3)cc2)CCN1 [Example 213]
Response given: > 7.70

Challenge: Output pIC50 of CS(=O)(=O)N(CCN)c1ccccc1Cn1ccc2cnc(Nc3ccc(N4CCNCC4)cc3)nc21 [Example 558]
Response given: < 6.00

Challenge: Output pIC50 of CN(C)c1cccc(Nc2ncc3ccn(Cc4cccnc4N(C)S(C)(=O)=O)c3n2)c1 [Example 139]
Response given: > 7.70

Challenge: Output pIC50 of CN(C)C1CCN(c2ccc(Nc3nc4c(ccn4Cc4cccnc4N(C)S(C)(=O)=O)cc3C#N)cc2)CC1 [Example 785]
Response given: < 6.00

###

- Experimental Target: Recombinant Src enzyme (Homo sapiens)
- Assay Details: Src HTRF assay
pIC50: −log10 of the molar value.
Reported Endpoint: pIC50

Here is how some compounds turned out for pIC50.
>>> observed_value("CC(=O)Nc1cccc(Nc2cc3c(cn2)cnn3S(=O)(=O)c2ccccc2OC(F)(F)F)c1")
"< 6.00"
>>> observed_value("COc1ccccc1S(=O)(=O)n1ccc2cnc(Nc3ccc(N4CCNCC4)cc3)cc21")
"< 6.00"

Challenge: Output pIC50 of C[C@H]1CN(c2ccc(Nc3cc4c(ccn4Cc4cccnc4N(C)S(C)(=O)=O)cn3)cc2)CCN1
Response given: < 6.00

Challenge: Output pIC50 of Cc1ccccc1Nc1ncc2ccn(Cc3cccnc3N(C)S(C)(=O)=O)c2n1
Response given: < 6.00

Challenge: Output pIC50 of O=S(=O)(c1ccc2ncsc2c1)n1ccc2cnc(Nc3ccc(N4CCNCC4)cc3)nc21
Response given: < 6.00

Challenge: Output pIC50 of COc1ccccc1S(=O)(=O)n1ncc2cnc(Nc3ccc4c(c3)CCC(=O)N4)cc21
Response given: < 6.00

Challenge: Output pIC50 of CN(c1ccccc1Cn1ccc2cnc(Nc3ccc(N4CCOCC4)cc3)cc21)S(C)(=O)=O
Response given: < 6.00

Challenge: Output pIC50 of Cc1cn(Cc2cccnc2N(C)S(C)(=O)=O)c2nc(Nc3ccc(N4CCNCC4)cc3)ncc12
Response given: < 6.00

Challenge: Output pIC50 of COc1ccccc1S(=O)(=O)n1ccc2cnc(Nc3cncnc3)nc21
Response given: < 6.00

Challenge: Output pIC50 of O=C1CCc2cc(Nc3ncc4cnn(S(=O)(=O)c5cccc6cccnc56)c4n3)ccc2N1
Response given: > 7.70

Challenge: Output pIC50 of O=S(=O)(c1cccc2cccnc12)n1ccc2cnc(Nc3ccc(N4CCNCC4)c(F)c3)nc21
Response given: > 7.70

Challenge: Output pIC50 of O=C1CCc2cc(Nc3ncc4ccn(Cc5cccnc5N5CCCS5(=O)=O)c4n3)ccc2N1
Response given: > 7.70

Challenge: Output pIC50 of C[C@H]1CNCCN1c1ccc(Nc2cc3c(ccn3S(=O)(=O)c3ccccc3C#N)cn2)cc1
Response given: < 6.00
